experiment: yeast display, Sf9 membrane polyspecificity reagent, FACS + sequencing; frameworks hold sequencing errors

Monomer sequence	polyreactivity (PSR sort gate)
QVQLVESGGGLVQAGGSLRLSCAASVITFWIYAMGWYRQAPGKERELVAAITGRGGSTYYADSVKGRFTISRDNAKNTVYLQLNSLKPEDTAFYYCAAESWYSTYDYWGQGTQVTVTS	high polyreactivity
QVQLVESGGGLVQAGGSLRLSCAASGITFGQNAMGWYRQAPGKEREYVATITASGSTYYADSVKGRFTISRDNAKNTVYLQMNSLKPEDTAVYYCATRYAGEYYWDYDYWGQGTQVTVSS	high polyreactivity

====

assay: yeast display, Sf9 membrane polyspecificity reagent, FACS + sequencing; frameworks hold sequencing errors
Observable: polyreactivity (PSR sort gate)

Previously resolved entries follow.
Monomer sequence	Observed
QVQLVESGGGLVQAGGSLRLSCAASGRTFGRYLMGWYRQAPGKERLLVAAISFSGTGTYYADSVKGRFTISRDNAKYTVYLQMNSLKPEDTAVYYCAKGVTRVQYKHYYWGQGTQVTVSS	high polyreactivity
QVQLVESGGGLVQAGGSLRLSCAASGNTFYPYAMGWYRQAPGKERELVAAITSSGGSTYYADSVKGRFTISRDNAKNTVYLQMNSLKPEDTAVYYCAADPDWYSPFKYCYWGQGTQVTVSS	low polyreactivity
QVQLVESGGGLVQAGGCLRLSCAASGFTFIYYVMGWYRQAPGIERELVAAINGRGDRKYYADSVKGRFTISRDNAKNTVYLQMTSLKPEETAVYYCNARTHTWGYSAKFDYWGQGTQVTVSS	high polyreactivity
QVQLVESGGGLVQAGGSLRLSCTASGFTFVYYAMGWYRQAPGKERELVASISRSGGSTYYADSVKGRFTISRDNAKNTVYLQMNSLKPEDTAVYYCNARYGRTALLDYWGQGTQVTVSS	high polyreactivity
QVQLVESGGGLVQAGGSLRLTCAASGSIFGTYAMGWYRQAPGKERQLVAAISWSDGSTYYADSVKGRFTISRDTAKNTFYLQMNSRKPEDTAVEYCAKVYRSIGPNVSRYGLSYYDWGHGTQVTVSS	low polyreactivity

sequence QVQIVESGGGLVEAGGSLRLSCAASGRTFWYIAMGWYRQSPGKASELVAAISYTGSRTYYADSVKGRFTISRYNAKNTVYLQMNSLKPDDTAVYYCNALARRPDAYAHYGYWGQGTQVSVSS , polyreactivity (PSR sort gate) observed: high polyreactivity

The value of polyreactivity (PSR sort gate) measured for the sequence QVQLVESGGGLVQAGGSLRLSCAASGFTFRGNAMGWYRQAPVKERELVAAITSSDDSTYYADSVKGRFTISRDLSKNTVYLQMNSLKPEDTAVYYCAAVANGYWTYEYWGQGTQVTVSS turned out to be low polyreactivity

Short answer for QVQLVESGGGLVQAGGSLRLSCAASGRTFRTYAMGWYRQAPGKERELVAAITTSGSSTYYADSVNGRFTISRDNAKKTVYLQMNILKPEDTAVYYCAAARAAIVPGYYSWGQGSQVTVSS : polyreactivity (PSR sort gate) was low polyreactivity

Lab note: measured polyreactivity (PSR sort gate) of QVQLVESGGGLVQAGGSLRLSCADSGLTFGRNAMGWYRHAPGKERELVAAITFNGGSTYYADSVKGRFTISRDNAKNTVYLQMNSLKPEDTAVYYCSGRLWRRSRFDYWGQGTQVTVSS was high polyreactivity

So, QVQLVESAGGLVQAGGSLRLSCAASGRIFGQYTMGWYRQAPGKERELDAAISSSGGRTYYADSVKGRFTISRDNAKNTVYLQMNSLKPEDTAVYYCAARDRPSPYYYWGQGTQVTVSS ? Its polyreactivity (PSR sort gate) was high polyreactivity

Value of measured polyreactivity (PSR sort gate) for the entry QVQLLESGGGLVQAGGSLRLSCAASGSIFGGYSMGWYRQAPGKERELVAAISWSGASTYYADSVKGRFTISRDNATTTVSLQMNSLKPEDTAVYSCAARSRVDLARSGYWGQGCQVTVSS : low polyreactivity
